The reported measurements were obtained from ChEMBL document CHEMBL1201862.

- System: U-251
- ASSAY SUMMARY: NCI tumour cell line growth inhibition, 48 h
The source made the active and inactive calls. Rule as the data show it: active = GI50 up to about 1.1 µM and inactive = higher.
GI50 listing for selected compounds.

Solved entries (count: 3):
- N#[N+]c1ccccc1Sc1ccc(Cl)cc1: > 100 µM (inactive)
- Cc1ccc2[nH]c3c(C)c4ccncc4c(C)c3c2c1: 1.16 µM (inactive)
- CCOC(=O)C[C@@H](C)[C@]1(C(=O)OC)CCCC1=O: > 100 µM (inactive)

Q. What GI50 value was documented for this compound, CC(=O)Oc1ccc2cc(-c3ccc(OC(C)=O)c(OC(C)=O)c3)c(=O)oc2c1 ?
A. 67.1 µM (inactive)
